molecular target: R. microplus nAChRα6 (Rma6) homopentamers (Rhipicephalus microplus, UniProt A0A223PM23); experiment: Two-electrode voltage clamp on Xenopus oocytes expressing Rmα6 homopentamers; conditions: membrane potential clamped at −60 mV, dose-response curve, read-out: EC50 (activation of Rma6 receptor)
Sequence (A0A223PM23 entry or part of it): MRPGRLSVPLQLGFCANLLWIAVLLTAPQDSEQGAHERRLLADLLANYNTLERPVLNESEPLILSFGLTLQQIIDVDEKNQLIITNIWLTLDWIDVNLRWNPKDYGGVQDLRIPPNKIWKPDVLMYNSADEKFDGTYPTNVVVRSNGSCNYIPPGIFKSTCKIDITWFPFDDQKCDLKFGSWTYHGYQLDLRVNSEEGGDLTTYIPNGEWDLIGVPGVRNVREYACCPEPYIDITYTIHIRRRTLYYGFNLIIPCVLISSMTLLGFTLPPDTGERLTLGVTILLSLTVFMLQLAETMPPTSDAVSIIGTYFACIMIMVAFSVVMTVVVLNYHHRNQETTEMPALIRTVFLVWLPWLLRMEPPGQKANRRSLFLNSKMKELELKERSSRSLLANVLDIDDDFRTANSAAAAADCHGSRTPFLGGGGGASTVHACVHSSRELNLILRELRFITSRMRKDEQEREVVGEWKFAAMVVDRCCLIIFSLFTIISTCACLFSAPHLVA
pEC50: −log10 of the molar value.

- Compound: "CC(=O)OCC[N+](C)(C)C [ACh, acetylcholine]"
  pEC50: 5.71

Data origin, for the record: patent US12162913B2
